biological target: HLA-A*02:01; experiment: IEDB peptide-MHC binding, purified MHC/direct/fluorescence; filed as Kd, often an IC50 or EC50 that approximates it; bounds were set here for any values at or beyond the usual limits of such assays; details: source organism: Influenza A virus (A/swine/Korea/S190/2004(H9N2))
recorded_endpoint: Kd

Form field: reported Kd of `ATTHSWIPK`
≥ 20 µM

----------
molecular target: HLA-B*57:01; test: IEDB peptide-MHC binding, purified MHC/direct/fluorescence; filed as Kd, often an IC50 or EC50 that approximates it; bounds were set here for any values at or beyond the usual limits of such assays; details: source organism: Toxoplasma gondii RH
recorded_endpoint: Kd

Would you mind telling me what Kd value was observed for `THADAHTQL` ?
≥ 20 µM

----------
target: HLA-A*33:01; assay: IEDB peptide-MHC binding, purified MHC/competitive/radioactivity; filed as Kd, often an IC50 or EC50 that approximates it; bounds were set here for any values at or beyond the usual limits of such assays; settings: source organism: Dengue virus 3 Martinique/1243/1999
recorded_endpoint: pKd
# pKd: negative log10 of molar concentration; output just the value

What value of pKd on HLA-A*33:01 does `EMGLLETTKR` have?
7.24

Recall the recorded pKd for `ETKGVERLKR` with HLA-A*33:01 and state it.
6.47

----------
target: HLA-A*24:02; assay: IEDB peptide-MHC binding, purified MHC/competitive/radioactivity; filed as Kd, often an IC50 or EC50 that approximates it; bounds were set here for any values at or beyond the usual limits of such assays; conditions: source organism: Dengue virus 3 Martinique/1243/1999
recorded_endpoint: Kd (nM)
Please state the figure in nM; there is no need to write the unit.

# query: Kd of entry `KHMIAGVFF`
837

----------
target: HLA-A*24:03; test: IEDB peptide-MHC binding, purified MHC/direct/fluorescence; filed as Kd, often an IC50 or EC50 that approximates it; bounds were set here for any values at or beyond the usual limits of such assays; conditions: source organism: Toxoplasma gondii
recorded_endpoint: Kd

Quick one: Kd for `LPPVVPPLI` ?
≥ 20 µM

----------
biological target: HLA-A*11:01; test: IEDB peptide-MHC binding, purified MHC/competitive/fluorescence; bounds were set here for any values at or beyond the usual limits of such assays; details: source organism: Variola virus
Record form. Attribute: pIC50. Fill in for each entry.
The read-out pIC50 is expressed as -log10 of concentration in moles per litre.

Return reported pIC50; argument: `HIPGDTLFK`
6.13

Item `LSLTKLFSY` has what recorded pIC50?
5.38

----------
molecular target: HLA-B*58:01; experiment: IEDB peptide-MHC binding, purified MHC/direct/fluorescence; filed as Kd, often an IC50 or EC50 that approximates it; bounds were set here for any values at or beyond the usual limits of such assays; details: source organism: Mycobacterium tuberculosis C
pKd: −log10 of the molar value.
recorded_endpoint: pKd

So what pKd did `TPKIRFWHV` get with HLA-B*58:01?
≤ 4.70

----------
biological target: HLA-B*58:01; experiment: IEDB peptide-MHC binding, purified MHC/direct/fluorescence; filed as Kd, often an IC50 or EC50 that approximates it; bounds were set here for any values at or beyond the usual limits of such assays; details: source organism: Cryptosporidium parvum
pKd: −log10 of the molar value.
recorded_endpoint: pKd

Entry under review: `IINAHRIPK` . Reported pKd?
≤ 4.70

Source listed as the Immune Epitope Database (IEDB).
